Test system: SK-MEL-5 melanoma
Experiment: NCI tumour cell line growth inhibition, 48 h
Reported TGI values follow for various molecules

Solved entries:
COc1ccc(CC(=O)c2cc(OC)c(OC)cc2C)cc1OC ... > 100 µM
O=C(NC1CCCCC1)c1c(O)[nH]c(=S)[nH]c1=O ... > 100 µM
On1c(-c2ccccc2)c(-c2c(-c3ccccc3)n(O)c3ccccc23)c2ccccc21 ... 50 µM
Cc1c(C)c(C)c(-n2c(=O)n(C)c(=O)n2C(C)(C)C)c(C)c1C ... > 100 µM
COc1ccc(C(CC(=O)c2ccccc2)C(C(=O)c2ccccc2)C(c2ccc(OC)cc2)C2C(=O)NC(=O)NC2=O)cc1 (centres undefined) ... 31.8 µM

Query block: Answer with reported TGI of COc1ccc(CNc2cc(OC)cc(OC)c2)cc1
Result block: > 100 µM

Query block: Answer with reported TGI of COc1ccc(C(=O)C2CC3(CCC2(O)c2ccc(OC)cc2)CC(=O)Nc2ccccc2C3=O)cc1 (centres undefined)
Result block: > 100 µM

Query block: Answer with reported TGI of O=c1c2cc([N+](=O)[O-])ccc2n2n1Cc1ccccc1CC2
Result block: > 100 µM

Query block: Answer with reported TGI of O=c1/c(=C/c2cccc3ccccc23)sc2nc3ccccc3n12
Result block: > 100 µM

Query block: Answer with reported TGI of CC(=O)[CH-]C(=O)c1ccccc1.CC(=O)[CH-]C(=O)c1ccccc1.[Nd+3].[OH-].[OH3+]
Result block: > 100 µM

# credit: PubChem BioAssay (NCI)
